Data origin, for the record: patent US20260159497A1

Assay Protocol: Pharmacokinetic study after oral dosing, dog
Experimental Conditions: in vivo, solution in 20% kleptose in water, Dog beagle male, 2 mg/kg, Fasted, 5 mL/kg, read-out: AUC0-24 h
Property Name: AUC(0-t) (µM·h)
Only the number, expressed in µM·h, is required.

Q) # get_value(readout='AUC(0-t)', item= `COc1cc(C)c2[nH]ccc2c1CN1CCC2(C[C@H]1c1ccc(C(=O)O)cc1)CC(F)(F)C2` )
A) 54.3

---

Assay Protocol: Pharmacokinetic study after oral dosing, non-human primate
Experimental Conditions: cynomolgus monkey, in vivo, solution in 20% kleptose in water, Cyno male, 30 mg/kg, Fed, 5 mL/kg, read-out: C24 h
Property Name: concentration at 24 h
The reply should consist of the numeric value with the unit placed after it.

Q) # get_value(readout='concentration at 24 h', item= `COc1cc(C)c2[nH]ccc2c1CN1CCC2(C[C@H]1c1ccc(C(=O)O)cc1)CC(F)(F)C2` )
A) 1750 nM

---

Each item that follows carries a reported pH at 24 h.
Assay Protocol: Solubility in Simulated Fluids at 37° C.
Type: physicochemical
Experimental Conditions: FaSSGF
Give a plain numeric answer without units written out.

Field: example entries. Status: answers known.
INSERT INTO results (compound, property_name, reported_value) VALUES
  ('COc1cc(C)c2[nH]ccc2c1CN1CCC2(C[C@H]1c1ccc(C(=O)O)cc1)CC(F)(F)C2.Cl [Form D]', 'pH at 24 h', 1.57),
  ('COc1cc(C)c2[nH]ccc2c1CN1CCC2(C[C@H]1c1ccc(C(=O)O)cc1)CC(F)(F)C2.Cc1ccc(S(=O)(=O)O)cc1 [Form B]', 'pH at 24 h', 1.5),
  ('COc1cc(C)c2[nH]ccc2c1CN1CCC2(C[C@H]1c1ccc(C(=O)O)cc1)CC(F)(F)C2 [Form A]', 'pH at 24 h', 1.61);

Kindly consider the entry below.
Q) # get_value(readout='pH at 24 h', item= COc1cc(C)c2[nH]ccc2c1CN1CCC2(C[C@H]1c1ccc(C(=O)O)cc1)CC(F)(F)C2.Cc1ccc(S(=O)(=O)O)cc1 [Form C] )
A) 1.56

---

Assay Protocol: Pharmacokinetic study after oral dosing, non-human primate
Experimental Conditions: cynomolgus monkey, in vivo, solution in 20% kleptose in water, Cyno male, 30 mg/kg, Fed, 5 mL/kg, read-out: AUC0-24 h
Property Name: AUC(0-t) (µM·h)
Only the number, expressed in µM·h, is required.

Q) # get_value(readout='AUC(0-t)', item= `COc1cc(C)c2[nH]ccc2c1CN1CCC2(C[C@H]1c1ccc(C(=O)O)cc1)CC(F)(F)C2` )
A) 96.1

---

Each item that follows carries a reported solubility at 30 min.
Assay Protocol: Solubility in Simulated Fluids at 37° C.
Type: physicochemical
Experimental Conditions: 37 °C, fassif, thermodynamic from solid, FaSSIF, 30 min, read-out: Solubility (mg/mL) 30 min
Only the number, expressed in mg/mL, is required.

Q) # get_value(readout='solubility at 30 min', item= COc1cc(C)c2[nH]ccc2c1CN1CCC2(C[C@H]1c1ccc(C(=O)O)cc1)CC(F)(F)C2.Cl [Form D] )
A) 2.19

Q) # repeat for COc1cc(C)c2[nH]ccc2c1CN1CCC2(C[C@H]1c1ccc(C(=O)O)cc1)CC(F)(F)C2 [Form A]
A) 0.24
